Biological target: mu receptor (Rattus norvegicus, UniProt P33535)
Construct: rat whole brain minus cerebellum for mu was homogenized; from tissue; host or cells: brain of male Sprague Dawley rats, whole brain minus cerebellum, homogenate fraction
Sequence (P33535 whole entry): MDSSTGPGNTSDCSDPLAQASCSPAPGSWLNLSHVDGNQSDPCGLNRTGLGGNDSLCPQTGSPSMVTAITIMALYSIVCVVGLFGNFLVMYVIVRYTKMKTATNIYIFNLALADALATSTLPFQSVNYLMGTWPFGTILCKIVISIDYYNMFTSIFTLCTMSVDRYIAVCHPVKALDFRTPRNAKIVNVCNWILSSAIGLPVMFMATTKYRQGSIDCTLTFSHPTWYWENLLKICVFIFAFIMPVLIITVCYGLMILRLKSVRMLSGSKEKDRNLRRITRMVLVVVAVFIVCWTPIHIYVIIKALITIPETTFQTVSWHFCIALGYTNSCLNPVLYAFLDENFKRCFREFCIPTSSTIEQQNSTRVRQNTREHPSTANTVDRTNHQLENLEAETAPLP
Assay: opioid receptor binding assay, [3H] NAL (tritiated naloxone), mu receptor
Design: species or system rat (Male Sprague Dawley), brain minus cerebellum
Details: 20 min, read-out: % displacement at 10 nM
Structures can show the parent of a compound that is named as a salt.
measure-name: inhibition at 0.01 µM (%)
Hi! Could you send only the number? It should be in %, unit omitted.

Answered examples (4):
INSERT INTO measurements (molecule, unit_of_measure, value_observed) VALUES
  ('C[C@H]1CN(CCC(C(=O)NCC(=O)O)C2CCCCC2)CC[C@@]1(C)c1cccc(O)c1 (relative stereo) [Example 27, monohydrate]', '%', 92),
  ('C[C@H]1CN(CC(Cc2ccccc2)C(=O)O)CC[C@@]1(C)c1cccc(O)c1 (relative stereo) [Example 4B, monohydrate]', '%', 83),
  ('C[C@H]1CN(CC(Cc2ccccc2)C(=O)NCCC(=O)O)CC[C@@]1(C)c1cccc(O)c1 (stereo partly shown) [Example 57, monohydrate]', '%', 92),
  ('C[C@@H]1CN(CC(Cc2ccccc2)C(=O)NCC(=O)O)CC[C@]1(C)c1cccc(O)c1 (single isomer, unassigned) [Example 98E]', '%', 69);

Field request: inhibition at 0.01 µM | item: C[C@H]1CN(CCC(C(=O)NCC(N)=O)c2ccccc2)CC[C@@]1(C)c1cccc(O)c1 (relative stereo) [Example 14, monohydrochloride monohydrate]
87

Field request: inhibition at 0.01 µM | item: C[C@H]1CN(CC(Cc2ccccc2)C(=O)NCC(=O)OCc2ccccc2)CC[C@@]1(C)c1cccc(O)c1 (stereo partly shown) [Example 55, hydrochloride]
83

Field request: inhibition at 0.01 µM | item: C[C@H]1CN(CC(Cc2ccccc2)C(=O)NCC(=O)O)CC[C@@]1(C)c1cccc(O)c1 (stereo partly shown) [Example 44, monohydrate]
87

====

Biological target: opioid receptor (Mus musculus, UniProt P42866)
Construct: Five CF-1 male mice (Charles River, Portage, Mich.); from tissue; host or cells: living CF-1 male mice (in vivo test; endogenous receptor)
Sequence (P42866 whole entry): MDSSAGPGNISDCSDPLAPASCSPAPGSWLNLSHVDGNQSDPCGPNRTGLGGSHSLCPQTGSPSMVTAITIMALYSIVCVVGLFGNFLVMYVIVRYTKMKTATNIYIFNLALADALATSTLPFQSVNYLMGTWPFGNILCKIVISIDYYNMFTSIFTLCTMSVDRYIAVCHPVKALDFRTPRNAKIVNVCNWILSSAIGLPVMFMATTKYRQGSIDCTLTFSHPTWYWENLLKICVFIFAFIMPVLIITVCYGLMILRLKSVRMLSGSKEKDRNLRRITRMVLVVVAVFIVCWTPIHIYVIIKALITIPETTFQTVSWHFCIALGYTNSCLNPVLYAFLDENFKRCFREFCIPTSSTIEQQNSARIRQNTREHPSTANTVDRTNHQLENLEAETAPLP
Test: mouse writhing analgesis test: block of morphine-induced analgesia
Type: in vivo, CF-1 male mice
Design: unit not given here
Settings: dose of antagonist that reduced the inhibition of writhing produced by 1.25 mg/kg morphine sulfate to 50%; subcutaneous, 20 min before acetic acid
Structures can show the parent of a compound that is named as a salt.
Sorting guide: entries reporting AD50 beneath 4 go in the class 1 pile, the rest go in the class 0 pile.

Illustrative cases are given below, each with its answer.
INSERT INTO assay_data (molecule, category_label) VALUES
  ('CCc1noc(CNC(=O)C(Cc2ccccc2)CN2CC[C@@](C)(c3cccc(O)c3)[C@@H](C)C2)n1 (relative stereo)', 'class 1'),
  ('CCCCCOC(=O)CNC(=O)C(Cc1ccccc1)CN1CC[C@@](C)(c2cccc(O)c2)[C@@H](C)C1 (relative stereo)', 'class 0');

Problem: For the molecule CCOC(=O)CCCNC(=O)C(CC1CCCCC1)CN1CC[C@@](C)(c2cccc(O)c2)[C@@H](C)C1 (stereo partly drawn) [Example 39, monohydrochloride] , is AD50 under 4?
class 0

Problem: For the molecule C[C@H]1CN(CCC(C(=O)NCCC(=O)OCc2ccccc2)C2CCCCC2)CC[C@@]1(C)c1cccc(O)c1 (relative stereo) [Example 25, hydrochloride monohydrate] , is AD50 under 4?
class 0

Problem: For the molecule C[C@H]1CN(CCC(C(=O)NCC(=O)O)c2ccccc2)CC[C@@]1(C)c1cccc(O)c1 (relative stereo) [Example 12, monohydrate] , is AD50 under 4?
class 0

Problem: For the molecule C[C@H]1CN(CC(Cc2ccccc2)C(=O)NCC(=O)N(C)C)CC[C@@]1(C)c1cccc(O)c1 (stereo partly drawn) [Example 47, monohydrochloride monohydrate] , is AD50 under 4?
class 0

Problem: For the molecule CCOC(=O)CCNC(=O)C(CC1CCCCC1)CN1CC[C@@](C)(c2cccc(O)c2)[C@@H](C)C1 (stereo partly drawn) [Example 36, monohydrochloride] , is AD50 under 4?
class 1

Problem: For the molecule C[C@H]1CN(CC(CC2CCCCC2)C(=O)NCCC(=O)OCc2ccccc2)CC[C@@]1(C)c1cccc(O)c1 (relative stereo) [Example 34, monohydrochloride] , is AD50 under 4?
class 0
